B1: HDV Ribozyme (parent)
chain: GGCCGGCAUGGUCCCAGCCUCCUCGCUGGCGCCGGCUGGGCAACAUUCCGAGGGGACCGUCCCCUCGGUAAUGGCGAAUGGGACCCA

# Variants of: B1
# EXPERIMENTAL_DETAILS: self-cleavage, relative activity (ratio to wild type); higher = more cleavage; co-transcriptional
QUANTITY: self-cleavage
// keep it numeric: no unit symbol after the value

>>> df
   variant_designation  observed_measurement
0            C41A G80U                 0.187

C19A U37G has a reported self-cleavage of 0.151

G10U C41G has a reported self-cleavage of 0.619

C24A A77U has a reported self-cleavage of 0.185

C14A G29U has a reported self-cleavage of 0.0966

G52U G54C has a reported self-cleavage of 0.684
